target: CD28 (human) (UniProt P10747); assay: flow cytometry, Jurkat/IL2 reporter cells (CD28), vs WT CD80 ECD-Fc (R&D)
property_name: log10 Fold change to WT CD80 (log10 of the value in fold)

>  <binder>
variant CD80 IgV-Fc Q27H/E35D/M47I/L85Q/D90G (Fc fusion) VIHVTKEVKEVATLSCGHNVSVEELAHTRIYWQKDKKMVLTMMSGDINIWPEYKNRTIFDITNNLSIVILALRPSDEGTYECVVQKYEKGAFKREHLAEVTLSVKAD

>  <log10 Fold change to WT CD80>
-0.72

$$$$
>  <binder>
variant CD80 IgV-Fc E35D/M47L/A71G/L85M/F92Y (Fc fusion) VIHVTKEVKEVATLSCGHNVSVEELAQTRIYWQKDKKMVLTMMSGDLNIWPEYKNRTIFDITNNLSIVILGLRPSDEGTYECVVMKYEKDAYKREHLAEVTLSVKAD

>  <log10 Fold change to WT CD80>
-0.85

$$$$
>  <binder>
variant CD80 IgV-Fc Q33L/E35D/M47I/N48D/A71G (Fc fusion) VIHVTKEVKEVATLSCGHNVSVEELAQTRIYWLKDKKMVLTMMSGDIDIWPEYKNRTIFDITNNLSIVILGLRPSDEGTYECVVLKYEKDAFKREHLAEVTLSVKAD

>  <log10 Fold change to WT CD80>
-1.40

$$$$
>  <binder>
variant CD80 IgV-Fc E35D/T41S/M43V/M47I/L70M/A71G (Fc fusion) VIHVTKEVKEVATLSCGHNVSVEELAQTRIYWQKDKKMVLSMVSGDINIWPEYKNRTIFDITNNLSIVIMGLRPSDEGTYECVVLKYEKDAFKREHLAEVTLSVKAD

>  <log10 Fold change to WT CD80>
-0.82

$$$$
>  <binder>
variant CD80 IgV-Fc E35D/D46E/M47V/V68M/D90G/K93E (Fc fusion) VIHVTKEVKEVATLSCGHNVSVEELAQTRIYWQKDKKMVLTMMSGEVNIWPEYKNRTIFDITNNLSIMILALRPSDEGTYECVVLKYEKGAFEREHLAEVTLSVKAD

>  <log10 Fold change to WT CD80>
0.18

$$$$
>  <binder>
variant CD80 IgV-Fc E35D/M47I/T62S/L85Q (Fc fusion) VIHVTKEVKEVATLSCGHNVSVEELAQTRIYWQKDKKMVLTMMSGDINIWPEYKNRTIFDISNNLSIVILALRPSDEGTYECVVQKYEKDAFKREHLAEVTLSVKAD

>  <log10 Fold change to WT CD80>
-1.00

$$$$

Sourced from patent US20220177587A1
